- System: Psdm. aerug. Walter
- assay info: MIC, liquid medium test tube series dilution test
- Assay type: cell-based, Pseudomonas aerug.
- condition context: 24 hours, 37°C
experimental endpoint: MIC

compound	experimental endpoint	reported
CN(C(=O)NC(C(=O)N[C@@H]1C(=O)N2[C@@H]1SC(C)(C)[C@@H]2C(=O)O)c1cccs1)C(=O)c1ccccc1Cl (stereo partly drawn)	MIC	100 units/ml
CN(C(=O)N[C@@H](C(=O)N[C@@H]1C(=O)N2[C@@H]1SC(C)(C)[C@@H]2C(=O)O)c1ccccc1)C(=O)c1ccccc1[N+](=O)[O-]	MIC	12.5 units/ml
COc1ccc(C(=O)N(C)C(=O)N[C@@H](C(=O)N[C@@H]2C(=O)N3[C@@H]2SC(C)(C)[C@@H]3C(=O)O)c2ccccc2)cc1[N+](=O)[O-]	MIC	100 units/ml
